- protocol notes: inhibition of PEG-3 promoter activity – cell-based, HeLa, luciferase luminescence, primary screen (AID 588405)
- experimental setup: HeLa PEG-Prom luciferase reporter, overnight, at 20 µM, hits give high values
In all, about 360,000 compounds went through this assay and about 6,200 (1.7%) were called active. The list comes from a sample in which actives are over-represented; it also holds close analogues and randomly drawn compounds.
Provide the reported inhibition of each item.
One number for each entry, in %.

COc1ccc(NC(=O)C2Cc3c(-c4cccc(NC(C)=O)c4)ccnc3O2)cc1OC (stereo not drawn)
24
Cc1cc(C)cc(C(=O)NCCN2CCOCC2)c1
3.53
Cc1cccc(C(=O)OC(C)CN2CCN(C)CC2)c1 (stereo not drawn)
-101

Okay, here is my list. What is inhibition for each of these?
1. O=C(CC[C@H]1O[C@@H](n2ccc(=O)[nH]c2=O)[C@H](O)[C@@H]1O)N[C@H](Cc1ccccc1)C(=O)NCCCN1CCCC1=O
2. NC(Cc1ccc(F)cc1)c1csc(Nc2nncc3ccccc23)n1 (stereo not drawn)
3. Cc1ccc(C(O)c2ncc(-c3ccccc3F)[nH]2)cc1F (stereo not drawn)
4. Cc1ccc(NN=C2C(=O)OC(C)(C)OC2=O)c(C)c1
5. CCc1ccc2c(c1)NC(=O)C2(C)Cc1ccc(OC(F)(F)F)cc1 (stereo not drawn)

Response:
1: -0.27; 2: 103; 3: -67.5; 4: -290; 5: 32.7
